Measured values drawn from patent US9776972B2 for this set.

system: mono-methyl arginine in RKO cells; test: RKO Methylation Assay, In Cell Western (ICW) for mono-methyl arginine and DNA content; format: cell-based; conditions: Homo sapiens, RKO, 72 h, RKO cells, 72 hours, mono-methyl arginine, percent activation; single experiment or average of multiple experiments; read-out: EC30 (In Cell Western data, Numerical)
List of log10 EC30 values.
Recall that a logarithmic scale is used here: each number is log10 of EC30 in nM.

Known log10 EC30 results, listed for orientation:
CCOC(=O)c1cccc(-c2n[nH]cc2CN(C)CCN)c1 [Compound 150] = 3.82
C=CCn1ncc(CN(C)CCNC)c1-c1ccc(OC(C)C)cc1 [Compound 219] = 2.96
CN(CCN)Cc1n[nH]cc1-c1ccc(C2CCOCC2)cc1 [Compound 145] = 3.29
CNCCN(C)Cc1c[nH]nc1-c1ccc(Oc2ccccc2)c(F)c1 [Compound 297] = 1.90
CN(CCN)Cc1c[nH]nc1-c1ccc(Oc2ccccc2F)cc1 [Compound 259] = 2.73

As a next step, examine the compound that follows.
Exam item: Given CCC(CO)Oc1ccc(-c2n[nH]cc2CN(C)CCNC)cc1 (stereo not shown) [Compound 287] , state its recorded log10 EC30.
Marked response: 2.31

====

target: human PRMT6 (Homo sapiens, UniProt Q96LA8); construct: Flag-PRMT6-His; made in house; host or cells: HEK 293F cells (BacMam baculovirus); assay: PRMT6 Biochemical Assay (3H-SAM Flashplate, peptide substrate); details: Biochemical IC50 PRMT6, single experiment or average of multiple experiments
Sequence (Q96LA8 with tags, fused parts or gaps): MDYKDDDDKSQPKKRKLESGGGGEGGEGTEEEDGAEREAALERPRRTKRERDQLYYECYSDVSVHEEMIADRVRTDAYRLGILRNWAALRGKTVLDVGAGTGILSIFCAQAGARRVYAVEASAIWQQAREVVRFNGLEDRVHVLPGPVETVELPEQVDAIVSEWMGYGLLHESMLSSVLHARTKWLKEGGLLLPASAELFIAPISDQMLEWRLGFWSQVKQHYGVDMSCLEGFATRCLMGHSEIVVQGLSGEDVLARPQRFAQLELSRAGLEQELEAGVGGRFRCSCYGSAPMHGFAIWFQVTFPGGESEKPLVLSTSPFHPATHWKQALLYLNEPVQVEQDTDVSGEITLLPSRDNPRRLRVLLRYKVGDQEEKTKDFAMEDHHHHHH
IC50 strictly under 20 nM means class 1; at 20 nM or over means class 0.

Examples from the recorded data:
CNCCN(C)Cc1c[nH]nc1-c1cc(Cl)c(OC(C)C)c(Cl)c1 = class 1
CNCCN(C)Cc1n[nH]cc1-c1cc(OC(C)C)cc(C(C)C)c1 = class 0
CNCCN(C)Cc1c[nH]nc1-c1cc(Cl)ccc1OC = class 0
CN(CCN)Cc1c[nH]nc1-c1ccc(C(F)(F)F)cc1F = class 0
CNCCN(C)Cc1cn(C)nc1-c1ccc(OC(C)C)cc1 = class 0

Exam item: Dear colleague, could you confirm whether IC50 of "CC(C)CN1C(=O)COc2ccc(-c3n[nH]cc3CN(C)CCN)cc21" falls below 20 nM? Thanks.
Marked response: class 0

Exam item: Dear colleague, could you confirm whether IC50 of "CN(CCN)Cc1n[nH]cc1-c1ccc(C2CCOCC2)cc1" falls below 20 nM? Thanks.
Marked response: class 0

Exam item: Dear colleague, could you confirm whether IC50 of "COc1ccc(-c2n[nH]cc2CN(C)CCN)c(Cl)c1" falls below 20 nM? Thanks.
Marked response: class 1

Exam item: Dear colleague, could you confirm whether IC50 of "CN(CCN)Cc1c[nH]nc1-c1ccc(OCCCN2CCOCC2)cc1" falls below 20 nM? Thanks.
Marked response: class 1

Exam item: Dear colleague, could you confirm whether IC50 of "CNCCN(C)Cc1cn(Cc2cccnc2)nc1-c1ccc(OC(C)C)cc1" falls below 20 nM? Thanks.
Marked response: class 0

====

// values below are pIC50; system is human PRMT3 (Homo sapiens, UniProt O60678)
Sequence (O60678 with tags, fused parts or gaps): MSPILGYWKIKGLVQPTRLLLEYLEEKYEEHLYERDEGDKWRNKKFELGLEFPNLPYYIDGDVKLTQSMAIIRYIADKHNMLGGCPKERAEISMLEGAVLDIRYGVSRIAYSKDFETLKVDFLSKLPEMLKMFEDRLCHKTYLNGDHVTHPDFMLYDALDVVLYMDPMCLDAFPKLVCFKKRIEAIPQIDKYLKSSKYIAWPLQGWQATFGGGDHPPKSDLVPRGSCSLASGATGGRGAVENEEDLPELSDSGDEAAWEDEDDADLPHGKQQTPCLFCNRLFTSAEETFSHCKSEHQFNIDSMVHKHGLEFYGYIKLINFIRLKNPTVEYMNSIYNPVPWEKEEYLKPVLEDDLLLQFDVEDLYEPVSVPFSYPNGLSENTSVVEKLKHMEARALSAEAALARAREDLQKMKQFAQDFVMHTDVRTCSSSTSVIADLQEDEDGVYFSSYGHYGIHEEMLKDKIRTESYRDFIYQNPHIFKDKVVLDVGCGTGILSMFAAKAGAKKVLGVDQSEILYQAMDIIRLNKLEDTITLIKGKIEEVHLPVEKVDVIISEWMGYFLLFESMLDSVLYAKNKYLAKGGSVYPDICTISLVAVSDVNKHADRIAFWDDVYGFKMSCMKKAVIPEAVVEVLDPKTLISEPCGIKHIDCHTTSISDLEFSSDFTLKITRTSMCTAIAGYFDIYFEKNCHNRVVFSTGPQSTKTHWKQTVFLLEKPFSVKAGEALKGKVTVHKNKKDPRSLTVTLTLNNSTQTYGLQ
Please keep in mind that pIC50 is minus log10 of the molar concentration; only the number is needed.

CN(CCN)Cc1cn(C2COC2)nc1-c1ccc(F)cc1 = 5.20

Exam item: Given "COc1ccc(-c2n[nH]cc2CN(C)CCN)cc1Cl" , state its recorded pIC50.
Marked response: 5.36

Exam item: Given "COc1ccc(-c2n[nH]cc2CN(C)CCN)cc1F" , state its recorded pIC50.
Marked response: 5.26

Exam item: Given "COc1ccc(-c2n[nH]cc2CN(C)CCN)cc1" , state its recorded pIC50.
Marked response: 5.39

====

List of pIC50 values.
target: Human CARM1 (PRMT4) (Homo sapiens, UniProt Q86X55); construct: Flag-CARM1-His; made in house; host or cells: HEK 293F cells (BacMam baculovirus); assay: CARM1 Biochemical Assay (3H-SAM Flashplate, peptide substrate); conditions: single experiment or average of multiple experiments
Sequence (Q86X55 1-585 isoform Q86X55-1): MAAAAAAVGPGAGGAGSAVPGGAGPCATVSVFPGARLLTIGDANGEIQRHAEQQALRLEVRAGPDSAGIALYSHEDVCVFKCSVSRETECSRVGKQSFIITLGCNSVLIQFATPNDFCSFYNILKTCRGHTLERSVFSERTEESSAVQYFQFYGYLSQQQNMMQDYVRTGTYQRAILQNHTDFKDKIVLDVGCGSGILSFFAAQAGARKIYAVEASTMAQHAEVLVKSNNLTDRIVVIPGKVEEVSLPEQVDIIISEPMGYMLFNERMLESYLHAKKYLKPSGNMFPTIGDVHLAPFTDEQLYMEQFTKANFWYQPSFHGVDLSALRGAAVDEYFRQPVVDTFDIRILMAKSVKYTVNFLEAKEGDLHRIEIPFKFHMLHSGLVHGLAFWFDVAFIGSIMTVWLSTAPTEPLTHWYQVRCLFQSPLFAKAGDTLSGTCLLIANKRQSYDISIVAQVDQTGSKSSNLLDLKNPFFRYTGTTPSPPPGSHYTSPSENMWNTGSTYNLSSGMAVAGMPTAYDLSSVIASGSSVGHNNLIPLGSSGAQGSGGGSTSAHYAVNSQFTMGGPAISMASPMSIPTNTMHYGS
Please keep in mind that pIC50 is minus log10 of the molar concentration; only the number is needed.

CC(C)Oc1ccc(-c2n[nH]cc2CN(C)CCN)cc1F = 6.29
CNCCN(C)Cc1c[nH]nc1-c1cccc(C(C)=O)c1 = 5.96

Exam item: Given "CNCCN(C)Cc1c[nH]nc1-c1cccc(OC)c1" , state its recorded pIC50.
Marked response: 5.92

====

system: mono-methyl arginine in RKO cells; assay: RKO Methylation Assay, In Cell Western (ICW) for mono-methyl arginine and DNA content; type: cell-based; conditions: Homo sapiens, RKO, 72 h, RKO cells, 72 hours, mono-methyl arginine, percent activation; single experiment or average of multiple experiments; read-out: EC30 (In Cell Western data, Numerical)
OUTCOME MEASURE: EC30

Known EC30 results, listed for orientation:
COCCn1cc(CN(C)CCN)c(-c2ccc(F)cc2)n1 = > 20 µM
C=CC(=O)Nc1cccc(-c2[nH]ncc2CN(C)CCNC)c1 = > 20 µM

Exam item: Given "Cc1ccc(Cl)c(-c2n[nH]cc2CN(C)CCN)c1" , state its recorded EC30.
Marked response: > 20 µM

====

List of pIC50 values.
Molecular target: human PRMT1 (Homo sapiens)
Construct: GST-tagged PRMT1; made in house; host or cells: High Five insect cells (baculovirus)
Sequence (Q99873 with tags, fused parts or gaps): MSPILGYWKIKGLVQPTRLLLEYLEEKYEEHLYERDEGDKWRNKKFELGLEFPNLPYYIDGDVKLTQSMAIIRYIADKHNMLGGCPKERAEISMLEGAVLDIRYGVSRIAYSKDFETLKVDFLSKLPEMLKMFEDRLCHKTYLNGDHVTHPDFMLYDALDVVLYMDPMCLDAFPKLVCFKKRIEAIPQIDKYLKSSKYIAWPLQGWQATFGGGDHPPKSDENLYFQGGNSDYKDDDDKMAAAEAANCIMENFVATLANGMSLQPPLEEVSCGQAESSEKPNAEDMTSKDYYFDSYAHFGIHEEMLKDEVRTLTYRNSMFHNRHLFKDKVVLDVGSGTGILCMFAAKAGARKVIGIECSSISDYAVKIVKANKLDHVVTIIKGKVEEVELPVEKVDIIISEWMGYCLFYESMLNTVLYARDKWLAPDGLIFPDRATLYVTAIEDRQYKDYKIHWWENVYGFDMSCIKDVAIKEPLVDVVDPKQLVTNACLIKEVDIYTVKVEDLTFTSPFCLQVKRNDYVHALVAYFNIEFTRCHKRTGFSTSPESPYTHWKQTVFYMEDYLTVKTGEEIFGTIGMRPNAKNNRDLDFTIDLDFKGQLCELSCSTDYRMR
Experiment: PRMT1 Biochemical Assay (3H-SAM Flashplate, peptide substrate)
Details: single experiment or average of multiple experiments
From the text: S-adenosylmethionine (SAM), S-adenosylhomocysteine (SAH), bicine, Tween20, dimethylsulfoxide (DMSO), bovine skin gelatin (BSG), and Tris(2-carboxyethyl)phosphine hydrochloride solution (TCEP) were purchased from Sigma-Aldrich at the highest level of purity possible. ^3H-SAM was purchase from American Radiolabeled Chemicals with a specific activity of 80 Ci/mmol. 384-well streptavidin Flashplates were purchased from PerkinElmer. […]
Please keep in mind that pIC50 is minus log10 of the molar concentration; only the number is needed.

CN(CCN)Cc1c[nH]nc1-c1ccc(OC(F)F)cc1 = 8.10
CNCCN(C)Cc1c[nH]nc1-c1ccc(OCC2CCOC2)cc1 (stereo not drawn) = 7.83

As a next step, examine the compound that follows.
Exam item: Given CNCCN(C)Cc1c[nH]nc1-c1ccc(OC(COC)C(C)C)cc1 (stereo not drawn) , state its recorded pIC50.
Marked response: 7.67

====

List of EC30 values.
tested on: mono-methyl arginine in RKO cells; experiment: RKO Methylation Assay, In Cell Western (ICW) for mono-methyl arginine and DNA content; format: cell-based; conditions: Homo sapiens, RKO, 72 h, RKO cells, 72 hours, mono-methyl arginine, percent activation; single experiment or average of multiple experiments; read-out: EC30 (In Cell Western data, Numerical)

Known EC30 results, listed for orientation:
CN(CCN)Cc1c[nH]nc1-c1ccc2c(c1)N(C)C(=O)CO2 = > 20 µM
CN(CCN1CCC1)Cc1c[nH]nc1-c1ccc(C#N)cc1 = > 20 µM
CNCCN(C)Cc1cn(CC(=O)OC)nc1-c1ccc(OC(C)C)cc1 = > 20 µM
COc1ccc(Cl)cc1-c1n[nH]cc1CN(C)CCN = > 20 µM
CNCCN(C)Cc1c(-c2ccc(OCCCOC)cc2)cnn1C = > 20 µM

Exam item: Given "CCCN(CCN)Cc1c[nH]nc1-c1ccc(F)cc1" , state its recorded EC30.
Marked response: > 20 µM

Exam item: Given "CN(CCN)Cc1c[nH]nc1-c1ccc(OCCN2CCOCC2)cc1" , state its recorded EC30.
Marked response: > 20 µM

====

Target: human PRMT1 (Homo sapiens)
Construct: GST-tagged PRMT1; made in house; host or cells: High Five insect cells (baculovirus)
Test: PRMT1 Biochemical Assay (3H-SAM Flashplate, peptide substrate)
Conditions: single experiment or average of multiple experiments
Description: S-adenosylmethionine (SAM), S-adenosylhomocysteine (SAH), bicine, Tween20, dimethylsulfoxide (DMSO), bovine skin gelatin (BSG), and Tris(2-carboxyethyl)phosphine hydrochloride solution (TCEP) were purchased from Sigma-Aldrich at the highest level of purity possible. ^3H-SAM was purchase from American Radiolabeled Chemicals with a specific activity of 80 Ci/mmol. 384-well streptavidin Flashplates were purchased from PerkinElmer. […]
OUTCOME MEASURE: pIC50
Please keep in mind that pIC50 is minus log10 of the molar concentration; only the number is needed.

CNCCN(C)Cc1cn(C2CCCCC2)nc1-c1ccc(OC(C)C)cc1 [Compound 256] = 6.88
CNCCN(C)Cc1c[nH]nc1-c1ccc(OCCCO)cc1 [Compound 236] = 8.04
CN(CCN)Cc1c[nH]nc1-c1ccccc1F [Compound 72] = 6.56
CN(CCN)Cc1c[nH]nc1-c1ccc(C(F)(F)F)cc1C(F)(F)F [Compound 85] = 6.63
CNCCN(C)Cc1cn(C)nc1-c1ccc(OC(C)C)c(Cl)c1 [Compound 206] = 8.15
CNCCN(C)Cc1c[nH]nc1-c1cccc(O)c1 [Compound 26] = 6.71

As a next step, examine the molecule that follows.
Exam item: // map CNCCN(C)Cc1n[nH]cc1-c1ccc(Oc2cccc(OC)c2)cc1 [Compound 239] to recorded pIC50 (system: human PRMT1 (Homo sapiens))
Marked response: 8.60
